Give measured max response, negative = inhibition for each item. Keep answers brief.
study.target: D(3) dopamine receptor (Homo sapiens)
protocol.notes: qHTS of D3 Dopamine Receptor Antagonist: qHTS; further: on the % scale 0 is the no-effect control and ±100 the full control effect
condition.context: D3R cells, DiscoveRx beta-arrestin luminescence, antagonist mode; hits give low values
The whole screen tested about 360,000 compounds, of which about 9,100 (2.5%) were called active. Roughly 4% stayed inconclusive and do not appear here. Many of the other results were omitted from the sample, so actives are more common in it than they were.
Answer in %, number only, no unit symbol.

Qu. For CC(C)(Oc1ccc(C2CC2(Cl)Cl)cc1)C(=O)O (stereo unspecified) , write its max response, negative = inhibition.
Ans. -111

Qu. Please give measured max response, negative = inhibition of the following entry: CC1(C(=O)Nc2cccc(Oc3ccccc3)c2)CCN1Cc1ccccc1Cl (stereo unspecified)
Ans. 11.7

Qu. Name the recorded max response, negative = inhibition of the molecule listed here: CCOC(=O)C(=CNc1cccc(C)n1)C(=O)OCC
Ans. -3.11

Qu. Please indicate max response, negative = inhibition recorded for CCOC(=O)C(=Cc1ccccc1OC)C(=O)OCC
Ans. -20.5

Qu. Give the reported max response, negative = inhibition for this molecule. O=C(Nc1ccc(C2CC2(Cl)Cl)cc1)c1cccc([N+](=O)[O-])c1 (stereo unspecified)
Ans. -14.6

Qu. For the molecule O=C(NCc1nnnn1-c1ccc(Cl)cc1)c1ccc2c(c1)OCO2 , report max response, negative = inhibition.
Ans. -11.2

Qu. Indicate its recorded max response, negative = inhibition; the molecule in question is CC[C@@H]1CC2=C(C(=O)OC(C)(C)O2)[C@@H](CC)O1
Ans. 16.4

Qu. Quote max response, negative = inhibition reported for COc1ccc(F)c(-c2nc(CN3CCC(c4ccccc4)CC3)c(C)o2)c1 please.
Ans. -19.4

Qu. Quick one: give measured max response, negative = inhibition for COc1ccc(C(C)(O)c2nc(-c3cc(F)cc(F)c3)cs2)cc1 (stereo unspecified)
Ans. 2.54

Qu. Fill in reported max response, negative = inhibition for this entry: COc1cc2c(cc1O)C(SC)=NC(C)(C)C2
Ans. -89.4

Qu. Supply recorded max response, negative = inhibition for COc1c(C)cc(C(O)c2ncc(-c3cccc(C(F)(F)F)c3)[nH]2)cc1C (stereo unspecified) here.
Ans. 0

###

study.target: D(3) dopamine receptor (Homo sapiens) (UniProt P35462)
Sequence (P35462 whole entry, looked up): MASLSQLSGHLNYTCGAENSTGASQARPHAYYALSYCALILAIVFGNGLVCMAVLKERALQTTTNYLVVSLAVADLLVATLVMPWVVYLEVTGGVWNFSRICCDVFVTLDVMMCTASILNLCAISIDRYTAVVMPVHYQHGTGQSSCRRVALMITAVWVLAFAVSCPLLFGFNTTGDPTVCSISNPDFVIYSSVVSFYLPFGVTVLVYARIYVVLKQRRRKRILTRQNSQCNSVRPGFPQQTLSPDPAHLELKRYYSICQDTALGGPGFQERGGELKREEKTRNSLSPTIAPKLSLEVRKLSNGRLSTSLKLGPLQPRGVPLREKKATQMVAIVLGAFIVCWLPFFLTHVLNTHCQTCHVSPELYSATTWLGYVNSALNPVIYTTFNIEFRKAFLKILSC
protocol.notes: qHTS of D3 Dopamine Receptor Antagonist: qHTS; further: on the % scale 0 is the no-effect control and ±100 the full control effect
condition.context: D3R cells, DiscoveRx beta-arrestin luminescence, antagonist mode; hits give low values
The whole screen tested about 360,000 compounds, of which about 9,100 (2.5%) were called active. Another 4% or so got no clear call; they are omitted. Many of the other results were omitted from the sample, so actives are more common in it than they were.
property.measured: max response, negative = inhibition (%)
Give the quantity in %, number only.

Qu. Give the value of max response, negative = inhibition reported for the following: CC1(C(=O)NS(=O)(=O)c2ccccc2)CCN1C(=O)C1CCCCC1 (stereo not drawn)
Ans. -29.5

Qu. Entry Clc1ccccc1-c1cc(COc2ccc3ccccc3c2)no1 needs its max response, negative = inhibition filled in; supply it.
Ans. -0.665

Qu. // Input: Cc1ccc(NC(=O)CCC(=O)N/N=C/c2ccco2)c(C)c1 . Output its max response, negative = inhibition only.
Ans. 16.8

Qu. Could you please provide reported max response, negative = inhibition for Cc1cc(OCCN2CCCC2)cc(C(C)C)c1 ? Thanks!
Ans. -86

Qu. Please give the documented max response, negative = inhibition of Cc1nnc(SCCCn2c(N3CCCCC3)nc3c2c(=O)[nH]c(=O)n3C)s1
Ans. 17.6

Qu. Output max response, negative = inhibition of Cn1c(=O)[nH]c(=O)c2c1nc(N1CCN(C(c3ccccc3)c3ccccc3)CC1)n2CCO
Ans. 6.48

Qu. Kindly indicate its recorded max response, negative = inhibition. Item: COc1cccc(CNc2nc(NCc3cccs3)nc3ccsc23)c1
Ans. -28.6

Qu. Quote max response, negative = inhibition reported for c1ccc2cc(OCCN3CCCC3)ccc2c1 please.
Ans. -61.2

Qu. Specify reported max response, negative = inhibition for the compound shown: Cc1cccc(C(=O)OCC(=O)NC(C)C2CC3CCC2C3)c1O (stereo not drawn)
Ans. -13.8

Qu. # return recorded max response, negative = inhibition for input CCN1CCCC1CNC(=O)c1ccc2c(c1)NC(=O)/C(=C\c1ccccc1F)S2 (stereo not drawn)
Ans. -21.4

Qu. Complete the entry with the larger response, negative = inhibition for Cc1ccccc1S(=O)(=O)NC(=O)C1(C)CCN1C(=O)C1(c2ccc(Cl)cc2)CC1 (stereo not drawn)
Ans. 4.07

Qu. // Input: Cc1cc(C)c(NC(=O)CN2CCCCCC2)c(C)c1 . Output its max response, negative = inhibition only.
Ans. 1.9

Qu. State its max response, negative = inhibition for this compound: COc1ccc(Cl)cc1NC(=O)NCC1CCN(Cc2ccccc2F)CC1
Ans. -85.7

Qu. Note down max response, negative = inhibition recorded for Cc1ccc(CN2CCN(/N=C/c3ccco3)CC2)c(C)c1
Ans. -78.6

Qu. Tell us which max response, negative = inhibition value is on record for CC(=O)c1ccc(Nc2nc(C(N)c3ccccc3Cl)cs2)cc1 (stereo not drawn)
Ans. 0

Qu. Query max response, negative = inhibition for O=C(NCc1ccccc1Cl)c1csc([C@@H]2O[C@H](CO)[C@@H](O)[C@H]2O)n1
Ans. 0

Qu. Identify measured max response, negative = inhibition associated with CC(=O)c1ccc(OCC(O)CN2CCN(S(=O)(=O)c3cccc(Br)c3)CC2)cc1 (stereo not drawn)
Ans. 22

Qu. In one line, give reported max response, negative = inhibition of the entry COc1ccc(OCCCC(=O)Oc2ccc(OC)cc2)cc1 .
Ans. 12.3

Qu. Return reported max response, negative = inhibition. Input compound: O=C(NCCNc1ccc([N+](=O)[O-])cc1)c1cccc2c(Br)cccc12
Ans. -58.2

Qu. Supply max response, negative = inhibition value. Item: CCN(c1ccccc1)S(=O)(=O)c1cc(C(=O)NCc2ccccn2)ccc1C
Ans. 4.76

Qu. Give the reported value of max response, negative = inhibition for this record: O=C(CN1CCN(C(=O)c2cccc(F)c2)CC1)Nc1ccccc1F
Ans. 137

Qu. Supply measured max response, negative = inhibition of CCC(=O)N1Cc2cc(C(=O)NCc3cccc(F)c3)nc(-c3cccc(C4=CCCC4)c3)c2[C@H]1CCO in your reply.
Ans. -8.57

Qu. Report max response, negative = inhibition for C[C@@H]1CN([C@H](C)CO)C(=O)CCCn2nncc2CO[C@@H]1CN(C)S(=O)(=O)c1cccc(C#N)c1
Ans. -18.1

Qu. Answer with reported max response, negative = inhibition of CN(c1ccc(C(=O)NCc2ccccn2)cc1)S(C)(=O)=O
Ans. -116

Qu. Output measured max response, negative = inhibition for this item: Cc1ccc(-c2ccc(CN3C(C(C)C)C(=O)N(Cc4cn(CCC5OCCO5)nn4)CCS3(=O)=O)cc2)cc1 (stereo not drawn)
Ans. 5.58

Qu. Read off the recorded max response, negative = inhibition for CC(=O)c1cccc(-c2cnc3c(NC=O)cc(-c4ccccc4Oc4ccccc4)cn23)c1
Ans. 31

Qu. Answer with reported max response, negative = inhibition of O=C(NCC(F)(F)F)c1ccc(S(=O)(=O)NCCc2ccc3c(c2)OCCO3)cc1
Ans. 18.6

Qu. Report max response, negative = inhibition for CC(=O)Nc1ccc(OCC(O)CN2CCN(c3ccccc3Cl)CC2)cc1 (stereo not drawn)
Ans. -66.4

Qu. Note down max response, negative = inhibition recorded for COC(=O)COc1ccc(S(=O)(=O)N2CCOCC2)cc1
Ans. 20.2

Qu. Name the recorded max response, negative = inhibition of the compound listed here: CC(C)c1ccc(OCC(O)CN2CCN(c3ccccn3)CC2)cc1 (stereo not drawn)
Ans. -29.5

Qu. Answer with reported max response, negative = inhibition of CCC(C)C(CO)NC(=O)/C=C/[C@H]1O[C@@H](n2cnc3c(NC(=O)c4ccccc4)ncnc32)[C@H](O)[C@@H]1O (stereo partly drawn)
Ans. 10.7

Qu. Consider the compound CC(CNc1ccc([N+](=O)[O-])cc1)NC(=O)c1ccccc1Br (stereo not drawn) . State its measured max response, negative = inhibition.
Ans. 3.2

Qu. Specify measured max response, negative = inhibition for Cc1ccc2nc(-c3ccccc3)c(CC3CCCCC3)n2c1 .
Ans. -9.93

Qu. Determine its reported max response, negative = inhibition: O=C(NCCNc1ccc([N+](=O)[O-])cc1Cl)c1ccccc1F
Ans. -0.899

Qu. Hello, please tell me recorded max response, negative = inhibition for this one: O=C(NCC1CCN(Cc2ccccc2Cl)CC1)Nc1cccc(Cl)c1
Ans. -29.8

Qu. Query max response, negative = inhibition for O=C(NCc1ccco1)c1cccc(-c2ccc3nncn3c2)c1
Ans. -9.17

Qu. Given COc1ccc(OCCCCN2CCC(C)CC2)cc1 , respond with its max response, negative = inhibition.
Ans. -66.8

Qu. Look up and state reported max response, negative = inhibition for CCNC(=O)C1(C)CCCN(C(=O)c2c(C)noc2C)C1 (stereo not drawn)
Ans. 0

Qu. Write down max response, negative = inhibition measured for item CC(=O)NC(c1ccccc1)c1nc(-c2ccccc2C)cs1 (stereo not drawn)
Ans. -13.7

Qu. Indicate the recorded max response, negative = inhibition value for this compound: COc1cc(NC(=O)NCC2CCN(Cc3ccc(C)cc3)CC2)cc(OC)c1OC
Ans. -16.2

Qu. For the compound CCCCNC(=O)C[C@@H]1C[C@@]2(C(=O)OC)CC(C)(C)CC=C2N(Cc2ccco2)C1=O , give its measured max response, negative = inhibition value.
Ans. 22.3

Qu. Return max response, negative = inhibition for the following compound: Cc1nn(CCOc2ccccc2)c(=O)n1-c1ccccc1F
Ans. -0.664

Qu. Look up and state reported max response, negative = inhibition for CSC1=NN(c2ccccc2)CN(c2ccccc2)N1C
Ans. -6.6
